# Tested on: Lipoprotein-associated phospholipase A2 (Rattus norvegicus)
# Assay info: Concentration required for inhibition ofLipoprotein associated phospholipase A2 in rat at dose 2 umol/kg/h
Observable: IC50 (nM)
Response body: numeric value in nM, unit text excluded.

Reported IC50 for Lipoprotein-associated phospholipase A2 (Rattus norvegicus), given CCCCCCCCCCCCN(C)C(=O)Cn1cc(Cc2cnc(=O)n(CC(=O)O)c2)c(=O)nc1SCc1ccc(F)cc1 ? 533
